# Lookup of reported abundance fitness keyed by entry
B1: Ankyrin-3, residues 4094 to 4171; numbered along this chain, Q12955 (parent)
chain: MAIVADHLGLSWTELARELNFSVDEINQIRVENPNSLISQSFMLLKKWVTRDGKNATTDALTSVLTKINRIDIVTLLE

# Variants of: B1
# Method Notes: abundance fitness (aPCA) (normalised: wild type 0, dead -1); higher = more abundant; growth selection in yeast, the domain comes from the species named
# Assay Conditions: Homo sapiens
Lab note: record just the number, no unit beside it.

Example results:
> print(dat)
                             query.sequence           property  value.observed
1  MAIVADHLGLSWTELARELNFSVDEINQIRVENPESLISQSFMLLKKWVTRDGKNATTDALTSVLTKINRIDIVTLLE  abundance fitness          -0.082
2  MAIVADHLGLSWTELARELNFSVDEINQIRVENPNSWISQSFMLLKKWVTRDGKNATTDALTSVLTKINRIDIVTLLE  abundance fitness          -0.395
3  MAIVADHLGLSWTELARELNFSVDEINQIRVENPNSLISQSFMLLKKWVTRYGKNATTDALTSVLTKINRIDIVTLLE  abundance fitness          -0.717
4  MAIVADHLGLSWTELARELNFSVDEINQIRVENPNSLISQSFMLLKKWVTRDGKNATTDALTSVLTKIKRIDIVTLLE  abundance fitness          -0.104
5  MAIVADHLGLSWTELARELNFSVDEINQIRVENPNSLISQSFMLLKKWVTRDGKNATTDALGSVLTKINRIDIVTLLE  abundance fitness          -0.201
6  MAIVADHLGLSWTELARELNFSVDEINQIRVENPNSLISQSFMLLKCWVTRDGKNATTDALTSVLTKINRIDIVTLLE  abundance fitness          -0.369
7  MAIVADHLGLSWTELARELNFSVDEINQIRVENPNSLISQSFMLLKKWVTRDGMNATTDALTSVLTKINRIDIVTLLE  abundance fitness            -0.1
8  MAIVAWHLGLSWTELARELNFSVDEINQIRVENPNSLISQSFMLLKKWVTRDGKNATTDALTSVLTKINRIDIVTLLE  abundance fitness          -0.517

--- query ---
Prompt line: Need abundance fitness of MAIVADHLGLSWTELARELNFSVDEINQIRVENPNSLISQSFMLLKKWVTRDGKNATTDALTSVLTKINRIDIVTLME , thanks.
Response line: -0.022
